- target: Polyunsaturated fatty acid lipoxygenase ALOX15B (Homo sapiens) (UniProt O15296)
- Sequence (O15296 whole entry, looked up): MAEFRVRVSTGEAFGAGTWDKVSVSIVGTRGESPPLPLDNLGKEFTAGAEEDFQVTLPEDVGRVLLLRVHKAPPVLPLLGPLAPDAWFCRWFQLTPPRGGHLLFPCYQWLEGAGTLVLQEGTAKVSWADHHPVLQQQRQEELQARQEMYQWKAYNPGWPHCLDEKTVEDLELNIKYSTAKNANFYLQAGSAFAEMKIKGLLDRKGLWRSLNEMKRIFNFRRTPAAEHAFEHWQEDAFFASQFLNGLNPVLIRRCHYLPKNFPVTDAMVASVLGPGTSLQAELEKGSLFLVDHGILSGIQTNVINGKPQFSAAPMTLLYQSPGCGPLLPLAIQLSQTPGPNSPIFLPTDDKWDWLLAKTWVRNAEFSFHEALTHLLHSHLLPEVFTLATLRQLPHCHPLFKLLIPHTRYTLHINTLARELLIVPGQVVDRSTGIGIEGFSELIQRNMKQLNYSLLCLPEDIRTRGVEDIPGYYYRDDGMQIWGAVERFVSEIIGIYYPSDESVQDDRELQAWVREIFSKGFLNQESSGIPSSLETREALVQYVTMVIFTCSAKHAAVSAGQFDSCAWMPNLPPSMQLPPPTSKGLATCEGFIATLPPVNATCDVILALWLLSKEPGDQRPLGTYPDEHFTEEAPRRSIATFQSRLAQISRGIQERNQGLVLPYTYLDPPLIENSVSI
- assay_name: qHTS Assay for Inhibitors of 15-hLO-2 (15-human lipoxygenase 2); further: on the % scale 0 is the no-effect control and ±100 the full control effect; nearly all actives have a fitted effect of over 60% in size
- run_conditions: purified 15hLO-2, xylenol orange hydroperoxide absorbance; series mostly up to 57.1 µM
Among all 110,000 compounds or so, about 610 (0.55%) were called active. About 3% were inconclusive and are not listed. The entries come from a sample that favours actives as a whole.
reported_property: activity change, negative = inhibition

# count of solved cases: 5
compound=NNc1nnc(NN)c2ccccc12 recorded_measurement="35% [at 0.0915 µM] (inactive)"
compound=Cc1ccc(-c2cc(=O)c3ccc(Cl)cc3[nH]2)cc1 recorded_measurement="-2.63% [at 0.0915 µM] (inactive)"
compound="O=C(OC1CCCCC1=O)c1cccc(S(=O)(=O)NCc2ccccc2)c1 (stereo unspecified)" recorded_measurement=inactive
compound="COc1ccc(C2CC(=O)Oc3ccc(C(C)(C)C)cc32)cc1 (stereo unspecified)" recorded_measurement="-11.2% [at 0.0915 µM] (inactive)"
compound="COc1ccc(SCc2noc(C(=O)NCC3CCCO3)c2C(=O)O)cc1 (stereo unspecified)" recorded_measurement=inactive

Challenge: Would you kindly share the measured activity change, negative = inhibition for CN=C1SC(CC(=O)Nc2ccc(C(=O)O)cc2)C(=O)N1C (stereo unspecified) ?
Response given: inactive

Challenge: For the compound C=CCC1CCC(=O)N2CCCC12 (stereo unspecified) , what activity change, negative = inhibition is on record?
Response given: -5.32% [at 0.0915 µM] (inactive)

Challenge: Look at this compound and give its reported activity change, negative = inhibition. O=C(NCc1ccco1)c1ccc(Cn2c(=O)c3sccc3n(Cc3ccc(F)cc3)c2=O)cc1
Response given: inactive

Challenge: Please report the recorded activity change, negative = inhibition for Cc1cccc(N2C(=O)c3cccnc3C2=O)c1 .
Response given: inactive

Challenge: Using the record for Cn1ccs/c1=N\S(=O)(=O)c1ccc(C(C)(C)C)cc1 , report its activity change, negative = inhibition.
Response given: inactive

Challenge: Dear colleague, I am looking for the recorded activity change, negative = inhibition of the following compound: C[C@@H]1C(c2ccc(F)cc2)=NN(c2ccc(Br)cc2)[C@H]1C(=O)N1CCOC1=O
Response given: -11.1% [at 0.0915 µM] (inactive)
